System: HIV-1NL4-3
Test: P4-MAGI assay
Type: cell-based
Settings: Human immunodeficiency virus 1, 24 h, P4 cells, 24 hour incubation, β-galactosidase expression; read-out: P4-MAGI IC50
pIC50: −log10 of the molar value.
Listing of recorded pIC50 by entry.
resultType: pIC50

| compound | observedMeasurement |
| --- | --- |
| C=C(C)[C@@H]1CC[C@]2(C(=O)NCCc3cccc(C(=O)NCc4ccc(N(C)C)cc4)c3)CC[C@]3(C)C(CCC4[C@@]5(C)CC[C@H](O)C(C)(C)C5CC[C@]43C)C12 (stereo partly shown) | 7.14 |
| C=C(C)[C@@H]1CC[C@]2(C(=O)NCCc3cccc(C(=O)NCc4ccc(C(=O)OC)o4)c3)CC[C@]3(C)C(CCC4[C@@]5(C)CC[C@H](O)C(C)(C)C5CC[C@]43C)C12 (stereo partly shown) | 7.59 |
| C=C(C)[C@@H]1CC[C@]2(C(=O)NCC(C)c3cccc(C(=O)NCc4cccc(C(=O)O)c4)c3)CC[C@]3(C)C(CCC4[C@@]5(C)CC[C@H](O)C(C)(C)C5CC[C@]43C)C12 (stereo partly shown) | 6.82 |
| C=C(C)[C@@H]1CC[C@]2(C(=O)NCCc3cccc(C(=O)N[C@@H](C)c4ccccn4)c3)CC[C@]3(C)C(CCC4[C@@]5(C)CC[C@H](O)C(C)(C)C5CC[C@]43C)C12 (stereo partly shown) | 6.60 |
| C=C(C)[C@@H]1CC[C@]2(C(=O)NCCc3cccc(C(=O)NCCc4cccc(C(=O)O)c4)c3)CC[C@]3(C)C(CCC4[C@@]5(C)CC[C@H](O)C(C)(C)C5CC[C@]43C)C12 (stereo partly shown) | 7.18 |
| C=C(C)[C@@H]1CC[C@]2(C(=O)NCc3cc(C(=O)NCCc4ccc(C(=O)OC)cc4)ccc3F)CC[C@]3(C)C(CCC4[C@@]5(C)CC[C@H](O)C(C)(C)C5CC[C@]43C)C12 (stereo partly shown) | 7.48 |
| C=C(C)[C@@H]1CC[C@]2(C(=O)NCCc3cccc(C(=O)NCc4ccc(C(=O)N[C@H](CC(=O)O)C(=O)O)cn4)c3)CC[C@]3(C)C(CCC4[C@@]5(C)CC[C@H](O)C(C)(C)C5CC[C@]43C)C12 (stereo partly shown) | 7.18 |
| C=C(C)[C@@H]1CC[C@]2(C(=O)NCCc3cccc(C(=O)NCc4ccc(C(=O)NCc5cccnc5C(=O)OC)cc4)c3)CC[C@]3(C)C(CCC4[C@@]5(C)CC[C@H](O)C(C)(C)C5CC[C@]43C)C12 (stereo partly shown) | 8.40 |
| C=C(C)[C@@H]1CC[C@]2(C(=O)NCc3cccc(C(=O)NCc4ccc(OC)cc4OC)c3)CC[C@]3(C)C(CCC4[C@@]5(C)CC[C@H](O)C(C)(C)C5CC[C@]43C)C12 (stereo partly shown) | 7.23 |
| C=C(C)[C@@H]1CC[C@]2(C(=O)NCCc3cccc(C(=O)NCc4ccc(C(=O)N[C@H](CCC(=O)O)C(=O)O)cn4)c3)CC[C@]3(C)C(CCC4[C@@]5(C)CC[C@H](O)C(C)(C)C5CC[C@]43C)C12 (stereo partly shown) | 7.45 |

* * *

Listing of recorded IC50 by entry.
Tested on: HIV-1NL4-3
Assay: P4-MAGI assay
Assay type: cell-based
Conditions: Human immunodeficiency virus 1, 24 h, P4 cells, 24 hour incubation, β-galactosidase expression; read-out: P4-MAGI IC50

| compound | IC50 [nM] |
| --- | --- |
| C=C(C)[C@@H]1CC[C@]2(C(=O)NCc3ccc(F)c(C(=O)NCCc4ccc(C(=O)O)cc4)c3)CC[C@]3(C)C(CCC4[C@@]5(C)CC[C@H](O)C(C)(C)C5CC[C@]43C)C12 (some centres unmarked) [Example 103] | 69.3 |
| C=C(C)[C@@H]1CC[C@]2(C(=O)NCCc3ccccc3C(=O)NCCCCC(=O)O)CC[C@]3(C)C(CCC4[C@@]5(C)CC[C@H](O)C(C)(C)C5CC[C@]43C)C12 (some centres unmarked) [Example 54] | 3400 |
| C=C(C)[C@@H]1CC[C@]2(C(=O)NCc3cccc(C(=O)NCCNC(C)=O)c3)CC[C@]3(C)C(CCC4[C@@]5(C)CC[C@H](O)C(C)(C)C5CC[C@]43C)C12 (some centres unmarked) [Example 4] | 155 |
| C=C(C)[C@@H]1CC[C@]2(C(=O)NCc3cccc(C(=O)NCc4ccc(O)c(C(=O)O)c4)c3)CC[C@]3(C)C(CCC4[C@@]5(C)CC[C@H](O)C(C)(C)C5CC[C@]43C)C12 (some centres unmarked) [Example 13] | 28 |
| C=C(C)[C@@H]1CC[C@]2(C(=O)NCc3cc(C(=O)NCc4ccc(C(=O)O)cc4)ccc3F)CC[C@]3(C)C(CCC4[C@@]5(C)CC[C@H](O)C(C)(C)C5CC[C@]43C)C12 (some centres unmarked) [Example 99] | 20.1 |

* * *

System: HIV-1NL4-3
Assay: P4-MAGI assay
Type: cell-based
Conditions: Human immunodeficiency virus 1, 24 h, P4 cells, 24 hour incubation, β-galactosidase expression; read-out: P4-MAGI IC50

| compound | IC50 / µM |
| --- | --- |
| C=C(C)[C@@H]1CC[C@]2(C(=O)NCc3cccc(C(=O)NCc4cccc(-c5nn[nH]n5)c4)c3)CC[C@]3(C)C(CCC4[C@@]5(C)CC[C@H](O)C(C)(C)C5CC[C@]43C)C12 (stereo partly shown) | 0.0248 |
| C=C(C)[C@@H]1CC[C@]2(C(=O)NCCc3cccc(C(=O)NCC(O)CO)c3)CC[C@]3(C)C(CCC4[C@@]5(C)CC[C@H](O)C(C)(C)C5CC[C@]43C)C12 (stereo partly shown) | 0.0505 |
| C=C(C)[C@@H]1CC[C@]2(C(=O)NCc3cccc(C(=O)NCc4ccc(N(C)C)cc4)c3)CC[C@]3(C)C(CCC4[C@@]5(C)CC[C@H](O)C(C)(C)C5CC[C@]43C)C12 (stereo partly shown) | 0.0363 |
| C=C(C)[C@@H]1CC[C@]2(C(=O)NCCc3cccc(S(=O)(=O)NCc4cccc(C(=O)O)c4)c3)CC[C@]3(C)C(CCC4[C@@]5(C)CC[C@H](O)C(C)(C)C5CC[C@]43C)C12 (stereo partly shown) | 0.143 |
| C=C(C)[C@@H]1CC[C@]2(C(=O)NCCc3cccc(C(=O)NCc4ccc(NCCCN5CCOCC5)cc4)c3)CC[C@]3(C)C(CCC4[C@@]5(C)CC[C@H](O)C(C)(C)C5CC[C@]43C)C12 (stereo partly shown) | 0.029 |
| C=C(C)[C@@H]1CC[C@]2(C(=O)NCc3cccc(C(=O)NCc4ccc(F)c(C(=O)OC)c4)c3)CC[C@]3(C)C(CCC4[C@@]5(C)CC[C@H](O)C(C)(C)C5CC[C@]43C)C12 (stereo partly shown) | 0.0404 |
| C=C(C)[C@@H]1CC[C@]2(C(=O)NCc3ccc(C(=O)O)o3)CC[C@]3(C)C(CCC4[C@@]5(C)CC[C@H](O)C(C)(C)C5CC[C@]43C)C12 (stereo partly shown) | 6.9 |
| C=C(C)[C@@H]1CC[C@]2(C(=O)NCc3cc(C(=O)NCc4ccc(C(=O)OC)cc4)ccc3F)CC[C@]3(C)C(CCC4[C@@]5(C)CC[C@H](O)C(C)(C)C5CC[C@]43C)C12 (stereo partly shown) | 0.0215 |
| C=C(C)[C@@H]1CC[C@]2(C(=O)NCCc3cccc(C(=O)NCc4ccc(C(=O)O)cn4)c3)CC[C@]3(C)C(CCC4[C@@]5(C)CCC(=O)C(C)(C)C5CC[C@]43C)C12 (stereo partly shown) | 0.0222 |
| C=C(C)[C@@H]1CC[C@]2(C(=O)NCCc3ccccc3C(=O)NCCCCCCC(=O)O)CC[C@]3(C)C(CCC4[C@@]5(C)CC[C@H](O)C(C)(C)C5CC[C@]43C)C12 (stereo partly shown) | 4.7 |
| C=C(C)[C@@H]1CC[C@]2(C(=O)NCCc3cccc(C(=O)NCc4ccc(OCCCN5CCNCC5)cc4)c3)CC[C@]3(C)C(CCC4[C@@]5(C)CC[C@H](O)C(C)(C)C5CC[C@]43C)C12 (stereo partly shown) | 0.678 |
| C=C(C)[C@@H]1CC[C@]2(C(=O)NCCc3cccc(C(=O)NCc4ccc(C(=O)O)cc4F)c3)CC[C@]3(C)C(CCC4[C@@]5(C)CC[C@H](O)C(C)(C)C5CC[C@]43C)C12 (stereo partly shown) | 0.011 |
| CC1(C)C2CC[C@]3(C)C(CCC4C5[C@H]([C@@](C)(O)CO)CC[C@]5(C(=O)NCCc5cccc(C(=O)NCc6ccc(C(=O)O)cn6)c5)CC[C@]43C)[C@@]2(C)CC[C@@H]1O (stereo partly shown) | 0.119 |
| C=C(C)[C@@H]1CC[C@]2(C(=O)NCCc3cccc(C(=O)NCC(N)=O)c3)CC[C@]3(C)C(CCC4[C@@]5(C)CC[C@H](O)C(C)(C)C5CC[C@]43C)C12 (stereo partly shown) | 0.194 |
| C=C(C)[C@@H]1CC[C@]2(C(=O)NCc3cccc(C(=O)NCc4cccc(C(=O)OC)c4F)c3)CC[C@]3(C)C(CCC4[C@@]5(C)CC[C@H](O)C(C)(C)C5CC[C@]43C)C12 (stereo partly shown) | 0.0583 |
| C=C(C)[C@@H]1CC[C@]2(C(=O)NCCc3cccc(C(=O)NCc4ccc(OCCCN5CCOCC5)cc4)c3)CC[C@]3(C)C(CCC4[C@@]5(C)CC[C@H](O)C(C)(C)C5CC[C@]43C)C12 (stereo partly shown) | 0.013 |
| C=C(C)[C@@H]1CC[C@]2(C(=O)NCCc3cccc(C(=O)N[C@@H](CC(C)C)[C@@H](O)CC(=O)O)c3)CC[C@]3(C)C(CCC4[C@@]5(C)CC[C@H](O)C(C)(C)C5CC[C@]43C)C12 (stereo partly shown) | 0.156 |
| C=C(C)[C@@H]1CC[C@]2(C(=O)NCCc3cccc(C(=O)NCc4ccc(C(=O)NCCc5cnc[nH]5)cn4)c3)CC[C@]3(C)C(CCC4[C@@]5(C)CC[C@H](O)C(C)(C)C5CC[C@]43C)C12 (stereo partly shown) | 0.0031 |
| C=C(C)[C@@H]1CC[C@]2(C(=O)NCCc3cccc(C(=O)NCc4ccc(O)c(C(=O)O)c4)c3)CC[C@]3(C)C(CCC4[C@@]5(C)CC[C@H](O)C(C)(C)C5CC[C@]43C)C12 (stereo partly shown) | 0.019 |
